Record set: IC50 | Polyamine deacetylase HDAC10 (Homo sapiens, UniProt Q969S8) | literature, multiple sources.

Worked set:
- CN1CCN(c2ccc(C(=O)Nc3nc(-c4cccs4)ccc3N)cn2)CC1: 1000 to 50000 nM
- CC(C)(Nc1ncc(-c2nnc(C(F)F)o2)cn1)c1ccc(F)cc1: > 30000 nM
- CCN(CC)S(=O)(=O)c1cccc(-c2nnc(Sc3ccc(C(=O)NO)cc3)n2C)c1: 1340 nM
- CN(C)S(=O)(=O)c1cccc(-c2nnn(Cc3ccc(C(=O)NO)cc3)n2)c1: 542 nM
- O=C1NCc2ccc(-c3nnn(Cc4ccc(-c5nnc(C(F)F)o5)cn4)n3)cc21: > 30000 nM

Need IC50 of O=C(Nc1cccc(-c2cn(Cc3ccc(-c4nnc(C(F)F)o4)cn3)nn2)c1)N1CCOCC1 , thanks. > 30000 nM

Need IC50 of COc1ccc(C(=O)N[C@@H](Cc2cscn2)c2nc(Cc3ccc(C(=O)NO)cc3)no2)cc1OC , thanks. 2480 nM

Need IC50 of Nc1ccc(-c2cn(Cc3ccc(-c4nnc(C(F)F)o4)cn3)nn2)cn1 , thanks. > 30000 nM

----------
Record set: pIC50 | Polyamine deacetylase HDAC10 (Homo sapiens, UniProt Q969S8) | literature, multiple sources.
pIC50: −log10 of the molar value.

Worked set:
- Cn1c(N)nc2cc(-c3nnn(Cc4ccc(-c5nnc(C(F)F)o5)cc4)n3)ccc21: < 4.52
- CN(C(=O)CCCCCCCNc1cccc2c1C(=O)N(C1CCC(=O)NC1=O)C2=O)c1ccc(NC(=O)CCCCCCC(=O)NO)cc1 (centres unmarked): 5.18
- FC(F)c1nnc(-c2ccc(Cn3cnc(-c4ccc(NC5=NCCN5)cc4)c3)nc2)o1: < 4.52
- Fc1ccc(C2(Nc3ncc(-c4nnc(C(F)F)o4)cn3)CC2)cc1: < 4.52
- Nc1ccc(-c2ccc(F)cc2)nc1NC(=O)c1ccc(N2CCC(N)CC2)nc1: 4.30 to 6.00

Reported pIC50 for Polyamine deacetylase HDAC10 (Homo sapiens, UniProt Q969S8), given O=C(NO)c1ccc(Cn2nnc(-c3ccc(C(F)(F)F)cc3)n2)cc1 ? 5.96

Reported pIC50 for Polyamine deacetylase HDAC10 (Homo sapiens, UniProt Q969S8), given Nc1ccc(-c2cnn(Cc3ccc(-c4nnc(C(F)F)o4)cn3)c2)cn1 ? < 4.52

Reported pIC50 for Polyamine deacetylase HDAC10 (Homo sapiens, UniProt Q969S8), given O=C(NO)c1cccc2c1C[C@]1(CCN(Cc3ccc(Cl)c(C(F)(F)F)c3)C1=O)C2 ? < 5.00

----------
Record set: IC50 | UniProtKB Q969S8 | literature, multiple sources.
readout: IC50 (µM)

Worked set:
- Nn1c(Sc2ccc(C(=O)NO)cc2)nnc1-c1ccc(OC(F)F)cc1: 0.636
- O=C(NO)c1ccc(CN(C(=O)N2CCOCC2)c2cccc(Br)c2)cc1: 1.47
- Cn1cc(Cc2ccc(F)cc2)c2cc(C(=O)NO)ccc21: 5.3

[A] Cn1c(Sc2c(F)cc(C(=O)NO)cc2F)nnc1-c1cccc2ccccc12
[B] COc1cc2cc(c1)C(=O)Nc1ccccc1NC(=O)[C@H](CCCCCC(=O)NO)OC/C=C\2
Of A and B , whose reported IC50 is the larger number? Pick one; state its label. A
(A: 14.1 µM, B: 2.29 µM)

----------
pIC50: −log10 of the molar value.
Record set: pIC50 | Polyamine deacetylase HDAC10 (Homo sapiens) | literature, multiple sources.

• Nc1ccc(-c2cn(Cc3ccc(-c4nnc(C(F)F)o4)cn3)cn2)cn1 = < 4.52

Reported pIC50 for Polyamine deacetylase HDAC10 (Homo sapiens), given O=C(NO)c1ccc2ccn(CCOc3cccc(CN4CCOCC4)c3)c2c1 ? < 5.00

Reported pIC50 for Polyamine deacetylase HDAC10 (Homo sapiens), given FC(F)c1nnc(-c2ccc(Cn3cc(-c4ccc(NC5=NCCN5)cc4)nn3)cc2)o1 ? < 4.52

Reported pIC50 for Polyamine deacetylase HDAC10 (Homo sapiens), given O=C(Nc1cccc(-c2cn(Cc3ccc(-c4nnc(C(F)F)o4)c(F)c3)nn2)c1)N1CCOCC1 ? < 4.52

Reported pIC50 for Polyamine deacetylase HDAC10 (Homo sapiens), given FC(F)c1nnc(-c2ccc(Cn3cc(-c4ccc5nc(Cl)[nH]c5c4)nn3)nc2)o1 ? < 4.52

Reported pIC50 for Polyamine deacetylase HDAC10 (Homo sapiens), given Nc1ccc(-c2ccc(F)cc2)nc1NC(=O)c1cnc(NC2CC2)nc1 ? ≤ 4.30

Reported pIC50 for Polyamine deacetylase HDAC10 (Homo sapiens), given O=C(NO)c1ccc(Cn2nnc(-c3cccs3)n2)cc1 ? 6.40

Reported pIC50 for Polyamine deacetylase HDAC10 (Homo sapiens), given Fc1ccc(C(CC(F)(F)F)Nc2ncc(-c3nnc(C(F)F)o3)cn2)cc1 (stereo not drawn) ? < 4.52

Reported pIC50 for Polyamine deacetylase HDAC10 (Homo sapiens), given Cc1cc(-c2nnc(Sc3ccc(C(=O)NO)cc3)n2C)nn1C ? 6.02

Reported pIC50 for Polyamine deacetylase HDAC10 (Homo sapiens), given Fc1ccc(C2(Nc3ncc(-c4nnc(C(F)F)o4)cn3)CC2)c(Cl)c1 ? < 4.52

Reported pIC50 for Polyamine deacetylase HDAC10 (Homo sapiens), given O=C(CCCCCCN(c1ccccn1)c1ccc2ccccc2n1)NO ? 6.90
